Below is a list of entries, each paired with its recorded SPOT signal as a fraction of Bim BH3's signal on the same receptor and array value.
Target: Bcl-xL, Q07817
Sequence (Q07817 1-209): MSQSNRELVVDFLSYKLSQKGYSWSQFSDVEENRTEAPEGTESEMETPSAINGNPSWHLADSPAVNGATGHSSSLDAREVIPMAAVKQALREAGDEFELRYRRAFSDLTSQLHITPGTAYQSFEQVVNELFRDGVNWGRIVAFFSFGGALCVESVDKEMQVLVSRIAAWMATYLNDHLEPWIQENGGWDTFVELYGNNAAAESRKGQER
Assay: peptide SPOT array, c-Myc-tagged receptor at 1 uM or 100 nM, anti-c-Myc-Cy3
Readout: SPOT signal as a fraction of Bim BH3's signal on the same receptor and array

{"Binder": "DHTDGVVACAAGLIGDLCTAFGKDVL [KPNB1]", "Number": 0.02}
{"Binder": "YKGHREIARYDLEQGAQVNRRSAKGN [FEM1A]", "Number": 1.82}
{"Binder": "KYDPSKYCHNLKKIGEDFSNTIPISS [NOL8]", "Number": 0.57}
{"Binder": "SQGDKRVAFFDRKGADCLSKWVGESE [ATAD2]", "Number": 0.02}
{"Binder": "QQMHHNAATAMAQRADMLRGLSPRES [NCOR2]", "Number": 0.06}
{"Binder": "YTCRGHIPGFLQTTADEFCFYYARKD [HHIP]", "Number": 0.07}
{"Binder": "FRLAQMCGLHIVVHADELEELINYYQ [CLTC]", "Number": 0.02}
